The measurements presented in this section are drawn from patent US20120101099A1.

The reader will find reported IC50 values listed item by item below.
- Target desc: CYP 2C9 (Homo sapiens, UniProt P11712)
- Construct: purchased
- Sequence (P11712 whole entry): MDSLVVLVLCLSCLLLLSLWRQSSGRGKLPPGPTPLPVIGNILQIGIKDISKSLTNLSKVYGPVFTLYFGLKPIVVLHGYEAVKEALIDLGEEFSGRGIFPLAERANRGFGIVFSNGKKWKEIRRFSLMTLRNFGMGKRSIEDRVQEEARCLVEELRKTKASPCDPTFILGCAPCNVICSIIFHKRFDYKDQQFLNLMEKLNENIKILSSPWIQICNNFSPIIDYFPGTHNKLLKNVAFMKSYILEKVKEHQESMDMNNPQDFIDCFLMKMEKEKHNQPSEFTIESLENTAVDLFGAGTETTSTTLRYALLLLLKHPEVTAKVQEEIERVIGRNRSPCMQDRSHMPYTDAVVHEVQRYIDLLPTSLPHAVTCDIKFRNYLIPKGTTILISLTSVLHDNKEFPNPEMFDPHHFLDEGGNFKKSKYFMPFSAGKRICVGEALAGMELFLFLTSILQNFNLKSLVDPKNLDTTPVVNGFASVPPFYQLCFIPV
- Test name: Cytochrome-P450 isoforms liability determination
- Type: in vitro ADME
- Conditions: fluorescence based kit; read-out: CYP liability (IC50 in μM) CYP 2C9
- Protocol: To determine the test compound liability towards Human cytochrome 450 (hCYP450) Isoforms fluorescence based screening kits. Brief procedure: 2× test compounds were prepared by dilution with deionized water. A serial dilution of the test compound was done. 2× solution of known inhibitor were used as a positive control. […] The fluorescence was measured in the fluorescent plate reader at excitation and emission wavelengths as recommended, depending on the substrate used.
Structures can show the parent of a compound that is named as a salt.
Property label: IC50

>>> result("O=C(/C=C/c1cccc(Cn2cc(-c3ccc(CN4CCOCC4)cc3)nn2)c1)NO [Example 25, hydrochloride]")
"51.5 µM"
>>> result("O=C(/C=C/c1ccc(Cn2cc(-c3ccc(CN4CCCC4)cc3)nn2)cc1)NO")
"> 60 µM"
>>> result("CN(C)Cc1ccc(-c2cn(Cc3ccc(/C=C/C(=O)NO)cc3)nn2)cc1")
"> 60 µM"
>>> result("O=C(NO)c1ccc(Cn2cc(-c3ccc(CN4CCCC4)cc3)nn2)cc1")
"> 60 µM"
>>> result("O=C(NO)c1ccc(Cn2cc(-c3ccc(CN4CCOCC4)cc3)nn2)cc1")
"> 60 µM"
